system: HIV; assay: inhibition of HIV-induced cytopathic effect in MT-4 cells (MTT method); format: cell-based; conditions: Human immunodeficiency virus 1, MT4; HIV-infected MT-4 cells; 1000 CCID50; 4 or 5 day incubation at 37° C.; MTT method; read-out: ED50: Effective concentration for the inhibition of the proliferation of HIV by 50%
// reported EC50 per item

Below: 5 compounds and their reported EC50.
- Compound: "Cc1cc(C)cc(Oc2c(C(C)C)c(=O)[nH]c(=O)n2C/C=C/c2ccccc2)c1 [Example 65]"
  Measurement Kind: "EC50"
  Reported Value: "< 0.009 µg/mL"
- Compound: "CCc1c(Oc2cc(C)cc(C)c2)n(C/C=C/CO)c(=O)[nH]c1=O [Example 83]"
  Measurement Kind: "EC50"
  Reported Value: "< 0.81 µg/mL"
- Compound: "CCc1c(Sc2ccccc2)n(CC=C(C)C)c(=O)[nH]c1=O [Example 15]"
  Measurement Kind: "EC50"
  Reported Value: "0.36 µg/mL"
- Compound: "CCc1c(Sc2ccccc2)n(C/C=C\\COCc2ccccc2)c(=O)[nH]c1=O [Example 17]"
  Measurement Kind: "EC50"
  Reported Value: "3.68 µg/mL"
- Compound: "CCc1c(Oc2cc(C)cc(C)c2)n(CC#Cc2ccccc2)c(=O)[nH]c1=O [Example 61]"
  Measurement Kind: "EC50"
  Reported Value: "< 0.009 µg/mL"

Entry CCc1c(Sc2ccccc2)n(C/C=C/c2ccccc2)c(=O)[nH]c1=O [Example 14] — recorded EC50 = < 0.032 µg/mL

Entry Cc1cc(C)cc(C(=O)c2c(C(C)C)c(=O)[nH]c(=O)n2C/C=C/c2ccccc2)c1 [Example 52] — recorded EC50 = < 0.009 µg/mL

Entry CCc1c(Cc2cc(C)cc(C)c2)n(C/C=C/C(=O)OC)c(=O)[nH]c1=O [Example 37] — recorded EC50 = 1.64 µg/mL

Entry C=CCn1c(C(=O)c2cc(C)cc(C)c2)c(CC)c(=O)[nH]c1=O [Example 43] — recorded EC50 = < 0.17 µg/mL

Entry CC/C=C/Cn1c(C(=O)c2cc(C)cc(C)c2)c(CC)c(=O)[nH]c1=O [Example 46] — recorded EC50 = < 0.009 µg/mL

Entry CCc1c(Sc2cc(C)cc(C)c2)n(C/C=C\CCl)c(=O)[nH]c1=O [Example 23] — recorded EC50 = < 0.93 µg/mL

----------
// reported EC50 per item
test system: HIV; assay: inhibition of HIV-induced cytopathic effect in MT-4 cells (MTT method); type: cell-based; conditions: Human immunodeficiency virus 1, MT4; HIV-infected MT-4 cells; 1000 CCID50; 4 or 5 day incubation at 37° C.; MTT method; read-out: ED50: Effective concentration for the inhibition of the proliferation of HIV by 50%

Below: 8 compounds and their reported EC50.
- Item Smiles: "C/C=C\\Cn1c(C(=O)c2cc(C)cc(C)c2)c(CC)c(=O)[nH]c1=O"
  System Name: "HIV"
  EC50: "< 0.032 µg/mL"
- Item Smiles: "C#CCn1c(C(=O)c2cc(C)cc(C)c2)c(CC)c(=O)[nH]c1=O"
  System Name: "HIV"
  EC50: "< 0.39 µg/mL"
- Item Smiles: "C/C=C/Cn1c(Cc2cc(C)cc(C)c2)c(CC)c(=O)[nH]c1=O"
  System Name: "HIV"
  EC50: "< 0.032 µg/mL"
- Item Smiles: "CC/C=C/Cn1c(Oc2cc(C)cc(C)c2)c(CC)c(=O)[nH]c1=O"
  System Name: "HIV"
  EC50: "< 0.032 µg/mL"
- Item Smiles: "C/C=C/Cn1c(Oc2cc(C)cc(C)c2)c(CC)c(=O)[nH]c1=O"
  System Name: "HIV"
  EC50: "< 0.01 µg/mL"
- Item Smiles: "C#CCn1c(Sc2ccccc2)c(CC)c(=O)[nH]c1=O"
  System Name: "HIV"
  EC50: "< 0.32 µg/mL"
- Item Smiles: "CC(=O)OC/C=C/Cn1c(C(=O)c2cc(C)cc(C)c2)c(C(C)C)c(=O)[nH]c1=O"
  System Name: "HIV"
  EC50: "< 0.009 µg/mL"
- Item Smiles: "CCc1c(Sc2cc(C)cc(C)c2)n(CC#Cc2ccccc2)c(=O)[nH]c1=O"
  System Name: "HIV"
  EC50: "< 0.009 µg/mL"

Entry "C/C=C\Cn1c(Oc2cc(C)cc(C)c2)c(C(C)C)c(=O)[nH]c1=O" — recorded EC50 = < 0.0155 µg/mL

----------
// reported EC50 per item
system: HIV; assay: inhibition of HIV-induced cytopathic effect in MT-4 cells (MTT method); format: cell-based; details: Human immunodeficiency virus 1, MT4; HIV-infected MT-4 cells; 1000 CCID50; 4 or 5 day incubation at 37° C.; MTT method; read-out: ED50: Effective concentration for the inhibition of the proliferation of HIV by 50%

- Item Smiles: "CCc1c(Sc2cc(C)cc(C)c2)n(C/C=C/CO)c(=O)[nH]c1=O"
  System Name: "HIV"
  EC50: "< 0.97 µg/mL"
- Item Smiles: "C/C=C\\Cn1c(Oc2cc(C)cc(C)c2)c(CC)c(=O)[nH]c1=O"
  System Name: "HIV"
  EC50: "< 0.01 µg/mL"
- Item Smiles: "CC#CCn1c(Cc2cc(C)cc(C)c2)c(CC)c(=O)[nH]c1=O"
  System Name: "HIV"
  EC50: "< 0.049 µg/mL"
- Item Smiles: "COC(=O)/C=C/Cn1c(C(=O)c2cc(C)cc(C)c2)c(C(C)C)c(=O)[nH]c1=O"
  System Name: "HIV"
  EC50: "< 0.01 µg/mL"
- Item Smiles: "CCOC(=O)C=CCn1c(C(=O)c2cc(C)cc(C)c2)c(CC)c(=O)[nH]c1=O"
  System Name: "HIV"
  EC50: "< 0.01 µg/mL"

Entry "CC#CCn1c(Oc2cc(C)cc(C)c2)c(C(C)C)c(=O)[nH]c1=O" — recorded EC50 = < 0.32 µg/mL

Entry "C/C=C/Cn1c(Cc2ccccc2)c(CC)c(=O)[nH]c1=O" — recorded EC50 = < 0.32 µg/mL

Entry "CCc1c(Sc2cc(C)cc(C)c2)n(CC=CC(=O)O)c(=O)[nH]c1=O" — recorded EC50 = < 0.902 µg/mL

Entry "CC#CCn1c(Sc2cc(C)cc(C)c2)c(CC)c(=O)[nH]c1=O" — recorded EC50 = < 0.69 µg/mL

----------
tested on: HIV; experiment: inhibition of HIV-induced cytopathic effect in MT-4 cells (MTT method); type: cell-based; settings: Human immunodeficiency virus 1, MT4; HIV-infected MT-4 cells; 1000 CCID50; 4 or 5 day incubation at 37° C.; MTT method; read-out: ED50: Effective concentration for the inhibition of the proliferation of HIV by 50%
Measurement Kind: EC50

Below: 4 compounds and their reported EC50.
- Compound: "CCOCn1c(Cc2cc(C)cc(C)c2)c(CC)c(=O)[nH]c1=O [Ref. 1, reference compound]"
  Reported Value: "< 0.009 µg/mL"
- Compound: "C/C=C/Cn1c(Cc2cc(C)cc(C)c2)c(C(C)C)c(=O)[nH]c1=O"
  Reported Value: "0.01 µg/mL"
- Compound: "CCc1c(C(=O)c2cc(C)cc(C)c2)n(C/C=C/CO)c(=O)[nH]c1=O"
  Reported Value: "< 0.009 µg/mL"
- Compound: "Cc1cc(C)cc(C(=O)c2c(C(C)C)c(=O)[nH]c(=O)n2C/C=C/CO)c1"
  Reported Value: "< 0.025 µg/mL"

Entry "CC#CCn1c(Sc2cc(C)cc(C)c2)c(C(C)C)c(=O)[nH]c1=O" — recorded EC50 = < 0.32 µg/mL

Entry "C=CCn1c(Cc2cc(C)cc(C)c2)c(CC)c(=O)[nH]c1=O" — recorded EC50 = < 0.32 µg/mL

Entry "CC/C=C/Cn1c(Sc2cc(C)cc(C)c2)c(C(C)C)c(=O)[nH]c1=O" — recorded EC50 = < 0.009 µg/mL

Entry "Cc1cc(C)cc(Cc2c(C(C)C)c(=O)[nH]c(=O)n2CC#Cc2ccccc2)c1" — recorded EC50 = < 0.009 µg/mL

Entry "COC(=O)/C=C/Cn1c(Oc2cc(C)cc(C)c2)c(C(C)C)c(=O)[nH]c1=O" — recorded EC50 = < 0.32 µg/mL

Entry "CCc1c(C(=O)c2cc(C)cc(C)c2)n(CC#Cc2ccccc2)c(=O)[nH]c1=O" — recorded EC50 = < 0.009 µg/mL

----------
// reported EC50 per item
test system: HIV; test: inhibition of HIV-induced cytopathic effect in MT-4 cells (MTT method); format: cell-based; settings: Human immunodeficiency virus 1, MT4; HIV-infected MT-4 cells; 1000 CCID50; 4 or 5 day incubation at 37° C.; MTT method; read-out: ED50: Effective concentration for the inhibition of the proliferation of HIV by 50%

Below: 5 compounds and their reported EC50.
- Compound: "C=CCn1c(Cc2ccccc2)c(CC)c(=O)[nH]c1=O [Example 4]"
  Measurement Kind: "EC50"
  Reported Value: "< 320 ng/mL"
- Compound: "C#CCn1c(Sc2cc(C)cc(C)c2)c(CC)c(=O)[nH]c1=O [Example 24]"
  Measurement Kind: "EC50"
  Reported Value: "< 32 ng/mL"
- Compound: "CC#CCn1c(Oc2cc(C)cc(C)c2)c(CC)c(=O)[nH]c1=O [Example 58]"
  Measurement Kind: "EC50"
  Reported Value: "< 340 ng/mL"
- Compound: "CCc1c(Sc2cc(C)cc(C)c2)n(COCc2ccccc2)c(=O)[nH]c1=O [Ref. 2, reference compound]"
  Measurement Kind: "EC50"
  Reported Value: "< 9 ng/mL"
- Compound: "CCc1c(Cc2ccccc2)n(C/C=C/c2ccccc2)c(=O)[nH]c1=O [Example 33]"
  Measurement Kind: "EC50"
  Reported Value: "< 32 ng/mL"

Entry Cc1cc(C)cc(Sc2c(C(C)C)c(=O)[nH]c(=O)n2CC#Cc2ccccc2)c1 [Example 3] — recorded EC50 = < 9 ng/mL

Entry CC/C=C/Cn1c(C(=O)c2cc(C)cc(C)c2)c(C(C)C)c(=O)[nH]c1=O [Example 53] — recorded EC50 = < 9 ng/mL

Entry Cc1cc(C)cc(C(=O)c2c(C(C)C)c(=O)[nH]c(=O)n2C/C=C/CCl)c1 [Example 9] — recorded EC50 = < 9 ng/mL

Entry Cc1cc(C)cc(Cc2c(C(C)C)c(=O)[nH]c(=O)n2C/C=C/c2ccccc2)c1 [Example 6] — recorded EC50 = < 9 ng/mL
